Assay system: histamine-3 receptor (Rattus norvegicus, UniProt Q9QYN8)
Sequence (Q9QYN8 whole entry): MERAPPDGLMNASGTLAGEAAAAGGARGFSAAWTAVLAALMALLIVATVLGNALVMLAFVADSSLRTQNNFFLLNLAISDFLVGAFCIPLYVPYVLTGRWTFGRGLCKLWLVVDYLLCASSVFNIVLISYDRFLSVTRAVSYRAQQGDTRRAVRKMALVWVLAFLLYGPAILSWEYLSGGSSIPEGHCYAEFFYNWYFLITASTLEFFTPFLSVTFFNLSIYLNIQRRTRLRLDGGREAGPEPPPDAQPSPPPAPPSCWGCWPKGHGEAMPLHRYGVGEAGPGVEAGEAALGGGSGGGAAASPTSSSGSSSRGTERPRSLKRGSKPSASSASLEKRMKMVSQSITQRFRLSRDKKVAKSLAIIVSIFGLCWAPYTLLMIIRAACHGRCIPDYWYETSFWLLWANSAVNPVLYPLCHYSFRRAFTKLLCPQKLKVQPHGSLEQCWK
pKi: −log10 of the molar value.
pKi of 7 or higher: label 1. Under 7: label 0.

- CC(C)(C)NC(=O)N[C@@H]1CCN(CCCOc2ccc(-c3ccc(C#N)cc3)cc2)C1: label 0
- N#Cc1ccc(-c2ccc(OCCCN3CC[C@@H](NS(=O)(=O)c4ccc(F)c(Cl)c4)C3)cc2)cc1: label 1
- CC(=O)c1ccc(OCCCN2CC[C@@H](N3C(=O)N[C@H](C(C)C)C3=O)C2)cc1: label 0

// query Reported pKi at or above 7? `CN(C(=O)c1ccco1)[C@@H]1CCN(CCCOc2ccc(-c3ccc(C#N)cc3)cc2)C1`
// result label 1

// query Does `COc1ccc(S(=O)(=O)N[C@@H]2CCN(CCCOc3ccc(-c4ccccn4)cc3)C2)cc1` have a reported pKi of at least 7?
// result label 0
